Reference for the values: patent US20240360157A1

Molecular target: human JAK1 catalytic kinase (JH1) domain (Homo sapiens (Human))
Sequence (P23458 875-1153): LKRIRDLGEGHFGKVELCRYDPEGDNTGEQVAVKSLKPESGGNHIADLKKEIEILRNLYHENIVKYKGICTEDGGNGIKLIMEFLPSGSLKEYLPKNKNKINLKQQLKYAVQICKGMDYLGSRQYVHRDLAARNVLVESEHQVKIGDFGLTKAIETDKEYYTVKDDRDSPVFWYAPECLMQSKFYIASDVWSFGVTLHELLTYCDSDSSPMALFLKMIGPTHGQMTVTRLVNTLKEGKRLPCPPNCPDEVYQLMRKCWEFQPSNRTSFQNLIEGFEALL
Experiment: ADP-Glo Kinase Assay, recombinant JAK1 catalytic kinase (JH1) domain
Assay type: biochemical
Conditions: recombinant JH1 domain 4 nM, 35 μM ATP, JAK3-342 peptide, mean, read-out: JAK1 biochem IC50 (nM) Mean
observationType: IC50 (nM)
Write the answer as a number in nM, unit excluded.

For the compound shown here, CC1C(C(=O)N2C3CCC2CN(c2ncnn4cc(-c5cnn(C(F)F)c5)cc24)C3)C1(F)F (stereo not shown) [Example 5] , give the reported IC50.
707

For the compound shown here, O=C([C@@H]1C[C@H]1F)N1C2CCC1CN(c1ccnn3cc(-c4ccnc(N5CCC5)c4)cc13)C2 [Example 119] , give the reported IC50.
1720

For the compound shown here, Cn1ncc(-c2cc3c(N4CC5CCC(C4)N5C(=O)[C@@H]4C[C@H]4F)ccnn3c2)c1F [Example 121] , give the reported IC50.
117

For the compound shown here, Cn1cc(-c2cc3c(N4CC5CCC(C4)N5C(=O)C4(F)CC4)ccnc3[nH]2)cn1 [Example 240] , give the reported IC50.
44

For the compound shown here, N#C[C@@H]1C[C@@H]1C(=O)N1C2CCC1CN(c1ncnn3cc(-c4cnn(C(F)F)c4)cc13)C2 (racemic) [Example 47] , give the reported IC50.
2530

For the compound shown here, O=C([C@@H]1C[C@H]1F)N1C2CCC1CN(c1ccnc3[nH]c(N4CCOCC4)nc13)C2 [Example 212] , give the reported IC50.
322

For the compound shown here, O=C(C1CC1)N1C2CCC1CN(c1ncnn3cc(-c4cnn([C@H]5CCOC5)c4)cc13)C2 [Example 157] , give the reported IC50.
1380

----------
Target: human JAK1 catalytic kinase (JH1) domain (Homo sapiens (Human))
Assay: ADP-Glo Kinase Assay, recombinant JAK1 catalytic kinase (JH1) domain
Assay type: biochemical
Conditions: recombinant JH1 domain 4 nM, 35 μM ATP, JAK3-342 peptide, mean, read-out: JAK1 biochem IC50 (nM) Mean
Where a name gives a salt, the structure may show the parent alone.
Kindly apply the following: True if IC50 is less than 200 nM, False in every other case.

hey, is IC50 for Cn1cc(-c2cc3c(N4CC5CCC(C4)N5C(=O)CC#N)ncnn3c2)cn1 [Example 62] lower than 200 nM or not?
False

hey, is IC50 for O=C(N1C2CCC1CN(c1ncnn3cc(-c4cnn(C(F)F)c4)cc13)C2)C1(C(F)(F)F)CC1 [Example 45] lower than 200 nM or not?
False

hey, is IC50 for Cn1cc(-c2cc3c(N4CC5CCC(C4)N5C(=O)C4CC(F)(F)C4)ncnn3c2)cn1 [Example 70] lower than 200 nM or not?
False

hey, is IC50 for O=C(C1CC1)N1C2CCC1CN(c1ncnn3cc(-c4cnn(C(F)F)c4)cc13)C2 [Example 144] lower than 200 nM or not?
False

hey, is IC50 for O=C(C1CC1)N1C2CCC1CN(c1ncnn3cc(-c4cnn(C5CCOCC5)c4)cc13)C2 [Example 153] lower than 200 nM or not?
False

hey, is IC50 for Cn1cc(-c2cc3c(N4CC5CCC(C4)N5C(=O)C4(F)CC4)ccnc3[nH]2)c(F)n1 [Example 243] lower than 200 nM or not?
True

hey, is IC50 for CNc1cc(-c2cc3c(N4CC5CCC(C4)N5C(=O)[C@@H]4C[C@H]4F)ccnn3c2)ccn1 [Example 99] lower than 200 nM or not?
True

hey, is IC50 for Cn1cc(-c2cc3c(N4CC5CCC(C4)N5C(=O)[C@@H]4C[C@H]4F)ncnc3[nH]2)cn1 [Example 235] lower than 200 nM or not?
True

hey, is IC50 for Cn1cc(-c2cc3c(N4CC5CCC(C4)N5C(=O)C4CCC4)ncnn3c2)cn1 [Example 67] lower than 200 nM or not?
False

hey, is IC50 for Cn1cc(-c2cc3c(N4CC5CCC(C4)N5C(=O)C4CC4)ncnn3c2)nn1 [Example 186] lower than 200 nM or not?
False

hey, is IC50 for COc1cc(-c2cc3c(N4CC5CCC(C4)N5C(=O)[C@@H]4C[C@H]4F)ncnn3c2)ccn1 [Example 89] lower than 200 nM or not?
False

hey, is IC50 for Cn1cc(-c2cn3ncc(F)c(N4CC5CCC(C4)N5C(=O)[C@@H]4C[C@H]4F)c3n2)cn1 (stereo in doubt) [Example 141] lower than 200 nM or not?
True

hey, is IC50 for COc1cc(-c2cc3c(N4CC5CCC(C4)N5C(=O)[C@@H]4C[C@H]4F)ccnn3c2)ccn1 [Example 88] lower than 200 nM or not?
True

hey, is IC50 for CC(C)(F)C(=O)N1C2CCC1CN(c1ncnn3cc(-c4cnn(C(F)F)c4)cc13)C2 [Example 32, trifluoroacetate] lower than 200 nM or not?
False

hey, is IC50 for N#Cc1cc(-c2cc3c(N4CC5CCC(C4)N5C(=O)[C@@H]4C[C@H]4F)ncnc3[nH]2)ccn1 [Example 233] lower than 200 nM or not?
True

hey, is IC50 for COc1cncc(-c2cc3c(N4CC5CCC(C4)N5C(=O)[C@@H]4C[C@H]4F)ccnn3c2)n1 [Example 123] lower than 200 nM or not?
False

----------
Molecular target: human JAK2 catalytic kinase (JH1) domain (Homo sapiens (Human), UniProt O60674)
Sequence (O60674 849-1124): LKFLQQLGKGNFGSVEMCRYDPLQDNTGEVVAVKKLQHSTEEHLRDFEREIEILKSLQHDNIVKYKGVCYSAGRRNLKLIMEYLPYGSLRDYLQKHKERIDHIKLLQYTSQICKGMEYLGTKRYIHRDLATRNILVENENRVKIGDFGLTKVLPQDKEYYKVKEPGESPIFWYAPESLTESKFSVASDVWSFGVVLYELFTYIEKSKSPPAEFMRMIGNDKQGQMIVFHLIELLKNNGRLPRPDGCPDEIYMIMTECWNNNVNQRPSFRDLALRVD
Experiment: ADP-Glo Kinase Assay, recombinant JAK2 catalytic kinase (JH1) domain
Assay type: biochemical
Conditions: recombinant JH1 domain 0.2 nM, 15 μM ATP, JAK3-974 peptide, mean, read-out: JAK2 biochem IC50 (nM) Mean
Would you mind telling me the reported IC50 of each entry?
Write the answer as a number in nM, unit excluded.

For the compound shown here, Cc1cc(-c2cc3c(N4CC5CCC(C4)N5C(=O)[C@@H]4C[C@H]4F)ncnn3c2)on1 , give the reported IC50.
1050

For the compound shown here, N#CCC(=O)N1C2CCC1CN(c1ncnn3cc(-c4cnn(C(F)F)c4)cc13)C2 , give the reported IC50.
4180

For the compound shown here, Cn1cc(-c2cc3c(N4CC5CCC(C4)N5C(=O)[C@H]4C[C@@H]4F)ncnn3c2)cn1 [Example 6] , give the reported IC50.
2260

For the compound shown here, Cc1c(-c2cc3c(N4CC5CCC(C4)N5C(=O)C4CC4)ncnn3c2)cnn1C , give the reported IC50.
7850

For the compound shown here, COc1cc(-c2cn3nccc(N4CC5CCC(C4)N5C(=O)[C@@H]4C[C@H]4F)c3n2)ccn1 , give the reported IC50.
48

For the compound shown here, Cn1cc(-c2cc3c(N4CC5CCC(C4)N5C(=O)C4CC4)ncnc3[nH]2)cn1 , give the reported IC50.
690

For the compound shown here, Cn1cc(-c2cc3c(N4CC5CCC(C4)N5C(=O)C4COC4)ncnn3c2)cn1 , give the reported IC50.
10000

----------
Target: human TYK2 catalytic kinase (JH1) domain (Homo sapiens (Human))
Sequence (P29597 897-1176): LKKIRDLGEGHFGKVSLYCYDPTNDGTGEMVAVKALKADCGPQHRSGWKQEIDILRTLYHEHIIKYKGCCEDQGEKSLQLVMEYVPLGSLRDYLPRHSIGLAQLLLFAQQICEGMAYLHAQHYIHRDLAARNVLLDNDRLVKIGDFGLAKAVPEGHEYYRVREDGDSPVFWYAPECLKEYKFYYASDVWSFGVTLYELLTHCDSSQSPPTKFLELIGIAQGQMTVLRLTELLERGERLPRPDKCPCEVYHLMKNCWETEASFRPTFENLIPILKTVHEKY
Test: ADP-Glo Kinase Assay, recombinant TYK2 catalytic kinase (JH1) domain
Format: biochemical
Settings: recombinant JH1 domain 2 nM, 10 μM ATP, JAK3-974 peptide, mean, read-out: TYK2 biochem IC50 (nM) Mean
Structures can show the parent of a compound that is named as a salt.
observationType: IC50 (nM)
Write the answer as a number in nM, unit excluded.

Form field: IC50 recorded for Cn1cc(-c2cn3ncc(F)c(N4CC5CCC(C4)N5C(=O)[C@@H]4C[C@H]4F)c3n2)cn1 (stereo in doubt) [Example 141] with human TYK2 catalytic kinase (JH1) domain (Homo sapiens (Human)) (enter value)
9.4

Form field: IC50 recorded for CC(C(=O)N1C2CCC1CN(c1ncnn3cc(-c4cnn(C(F)F)c4)cc13)C2)C(F)(F)F (stereo not shown) [Example 31, trifluoroacetate] with human TYK2 catalytic kinase (JH1) domain (Homo sapiens (Human)) (enter value)
193

Form field: IC50 recorded for O=C(CC(F)(F)F)N1C2CCC1CN(c1ncnn3cc(-c4cnn(C(F)F)c4)cc13)C2 [Example 43] with human TYK2 catalytic kinase (JH1) domain (Homo sapiens (Human)) (enter value)
223

Form field: IC50 recorded for O=C(C1CC1)N1C2CCC1CN(c1ncnn3cc(-c4cnn(C(F)(F)F)c4)cc13)C2 [Example 154] with human TYK2 catalytic kinase (JH1) domain (Homo sapiens (Human)) (enter value)
490

----------
Biological target: human JAK3 catalytic kinase (JH1) domain (Homo sapiens (Human), UniProt P52333)
Sequence (P52333 822-1111): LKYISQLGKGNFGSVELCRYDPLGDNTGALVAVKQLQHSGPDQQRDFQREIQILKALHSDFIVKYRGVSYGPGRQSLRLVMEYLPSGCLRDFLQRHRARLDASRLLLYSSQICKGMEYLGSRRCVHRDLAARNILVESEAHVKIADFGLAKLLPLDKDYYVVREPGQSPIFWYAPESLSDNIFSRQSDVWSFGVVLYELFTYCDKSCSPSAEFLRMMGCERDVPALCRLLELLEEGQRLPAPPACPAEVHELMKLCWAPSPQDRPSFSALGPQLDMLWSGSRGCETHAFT
Assay: ADP-Glo Kinase Assay, recombinant JAK3 catalytic kinase (JH1) domain
Type: biochemical
Details: recombinant JH1 domain 0.3 nM, 4 μM ATP, JAK3-974 peptide, mean, read-out: JAK3 biochem IC50 (nM) Mean
observationType: IC50 (nM)
Write the answer as a number in nM, unit excluded.

For the compound shown here, O=S(=O)(C1CC1)N1C2CCC1CN(c1ncnn3cc(-c4cnn(C(F)F)c4)cc13)C2 , give the reported IC50.
9390

For the compound shown here, COc1cc(-c2cc3c(N4CC5CCC(C4)N5S(=O)(=O)C4CC4)ccnc3[nH]2)ccn1 , give the reported IC50.
612

For the compound shown here, Cn1cc(-c2cc3c(N4CC5CCC(C4)N5C(=O)C4(C)CCC4)ncnn3c2)cn1 , give the reported IC50.
8670

For the compound shown here, Cn1cc(-c2nc3c(N4CC5CCC(C4)N5S(=O)(=O)C4CC4)ccnc3[nH]2)cn1 , give the reported IC50.
306

For the compound shown here, O=C(C1CC1)N1C2CCC1CN(c1ncnn3cc(-c4cnn(CC5COC5)c4)cc13)C2 , give the reported IC50.
780

For the compound shown here, CNc1cc(-c2nc3c(N4CC5CCC(C4)N5C(=O)[C@@H]4C[C@H]4F)ccnc3[nH]2)ccn1 , give the reported IC50.
107

For the compound shown here, O=C([C@H]1C[C@H]1F)N1C2CCC1CN(c1ncnn3cc(-c4cnn(C(F)F)c4)cc13)C2 (single isomer, unassigned) [Example 73] , give the reported IC50.
8860
